Provenance of the data: patent US20210380703A1

# maps each entry to its optical density
# Test System: T1, human ACVR2A (human, UniProt P27037 20-135, limits assumed); further: test concentration or dose not given here
# T1 construct: also called activin receptor, type II A
# T1 sequence (P27037 20-135 limits assumed): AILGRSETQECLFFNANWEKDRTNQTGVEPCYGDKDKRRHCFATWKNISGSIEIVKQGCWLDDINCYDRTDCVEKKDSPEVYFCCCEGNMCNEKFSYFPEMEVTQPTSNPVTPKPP
# Assay Name: ELISA
Output spec: scalar in OD, unitless text.

Give optical density for the following binder: 368_G11 (antibody, V domains shown, Group II) VH: EVQLLESGGGLVQPGGSLRLSCAASGFTFDSYGMHWVRQAPGKGLEWVSGINYNSGYKSYADSVKGRFTISRDNSKNTLYLQMNSLRAEDTAVYYCARAATWHDTALDYWGQGTLVTVSS VL: DIQMTQSPSSLSASVGDRVTITCRASQSILTYLNWYQQKPGKAPKLLIYAATSRASGVPSRFSGSGSGTDFTLTISSLQPEDFATYYCQQSDNTPLTFGGGTKVEIK
2.1

Please supply the value of reported optical density for the item 365_B08 (antibody, V domains shown, Group II) VH: EVQLLESGGGLVQPGGSLRLSCAASGFTFDSYGMNWVRQAPGKGLEWVSNINYNSGYKGYADSVKGRFTISRDNSKNTLYLQMNSLRAEDTAVYYCARAATWHDTHLDYWGQGTLVTVSS VL: DIQMTQSPSSLSASVGDRVTITCRASQSIVTYLNWYQQKPGKAPKLLIYAATSRASGVPSRFSGSGSGTDFTLTISSLQPEDFATYYCQQSYSSPLTFGGGTKVEIK
1.14
